study-system: HO-2 (rat brain) (Rattus norvegicus, UniProt P23711)
Construct: brain microsomes were used as a source of HO-2; from tissue; host or cells: brain microsomal fraction of adult male Sprague-Dawley rats
Sequence (P23711 whole entry): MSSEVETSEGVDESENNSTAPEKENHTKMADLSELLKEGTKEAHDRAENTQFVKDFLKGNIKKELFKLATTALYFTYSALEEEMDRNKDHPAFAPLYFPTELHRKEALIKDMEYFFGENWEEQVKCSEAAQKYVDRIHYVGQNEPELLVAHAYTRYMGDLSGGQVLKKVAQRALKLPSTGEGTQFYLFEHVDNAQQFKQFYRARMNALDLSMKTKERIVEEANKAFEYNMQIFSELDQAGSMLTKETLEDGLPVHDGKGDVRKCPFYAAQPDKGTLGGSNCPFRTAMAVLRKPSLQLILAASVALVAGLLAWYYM
assay-text: HO enzymatic activity in rat brain microsomal fraction (CO formed from methemalbumin, gas chromatography)
Format: biochemical
condition-summary: rat brain microsomes; average ± standard deviation of replicate experiments
observation-type: IC50 HO-2 (rat brain)/μM

Worked cases, answers included:
1) Cl.OC(Cn1ccnc1)Cn1ccnc1	Inactive
2) Cl.c1cn(CC2OCCO2)cn1	Inactive
3) CC(=O)C(Cc1ccccc1)n1cncn1 (racemic)	INACTIVE
4) Cc1nccn1CC(=O)CCc1ccc(Cl)cc1.Cl	INACTIVE

# context switch: different compound, same IC50 HO-2 (rat brain)/μM
INPUT: Can you share its IC50 HO-2 (rat brain)/μM? I mean this compound: `Cc1nccn1CC1(CCc2ccc(Cl)cc2)OCCO1.Cl`
OUTPUT: INACTIVE

###

assay-text: Pharmacokinetic evaluation of QC-199 in mouse plasma, IV infusion
Format: in vivo
condition-summary: male, CD-1, mouse, in vivo, IV infusion
observation-type: AUC(0-inf) (µg·h/mL)
The reply should be a number in µg·h/mL, with the unit left off.

INPUT: Can you share its AUC(0-inf)? I mean this molecule: Brc1ccc(CCCCn2ccnc2)cc1.Cl [QC-199]
OUTPUT: 224

###

study-system: HO-2 (rat brain) (Rattus norvegicus, UniProt P23711)
Construct: brain microsomes were used as a source of HO-2; from tissue; host or cells: brain microsomal fraction of adult male Sprague-Dawley rats
assay-text: HO enzymatic activity in rat brain microsomal fraction (CO formed from methemalbumin, gas chromatography)
Assay type: biochemical
condition-summary: rat brain microsomes; average ± standard deviation of replicate experiments; read-out: IC50 HO-2 (rat brain)/μM
Procedure: Incubations for HO activity analysis were done under conditions for which the rate of CO formation (pmol CO×min^−1×mg protein^−1) was linear with respect to time and microsomal protein concentration. […] The values on the abscissa represent the decimal logarithm of the inhibitor's concentration (in μM), whereas the values of the activity on the ordinate are expressed as a percentage of the control experiments without inhibitor. […]
Counter-ions that a name gives are not always drawn.
observation-type: IC50

1. c1ccc2cc(C3(Cn4cncn4)OCCO3)ccc2c1	> 100 µM
2. c1ccc(CNCCCn2ccnc2)cc1	> 100 µM
3. O=C(CCc1ccccc1)Cn1cnnn1 [hydrochloride]	30 µM
4. O=C(CCn1ccnc1)C12CC3CC(CC(C3)C1)C2 [hydrochloride]	~100 µM

INPUT: Can you share its IC50? I mean this compound: O=C(Cn1cncn1)c1ccc([N+](=O)[O-])cc1 [hydrochloride]
OUTPUT: > 100 µM

INPUT: One more compound: `O=C(CCc1ccccc1)Cn1nnnc1-c1ccccc1`
OUTPUT: > 100 µM

INPUT: One more compound: CSC[C@@H]1CO[C@@](CCc2ccc(Cl)cc2)(Cn2ccnc2)O1 [hydrochloride]
OUTPUT: 19 µM

INPUT: One more compound: O=C(CCc1ccc(C(F)(F)F)cc1)Cn1ccnc1 [hydrochloride]
OUTPUT: 1.4 µM

INPUT: One more compound: COc1ccc(SC[C@@H]2CO[C@@](CCc3ccc(Cl)cc3)(Cn3ccnc3)O2)cc1 [hydrochloride]
OUTPUT: 2.5 µM

INPUT: One more compound: `[N-]=[N+]=NCC(=O)c1ccc(Br)cc1`
OUTPUT: > 100 µM

INPUT: One more compound: `Clc1ccc(OCCCCCNc2nc3ccccc3[nH]2)cc1`
OUTPUT: ~105 µM
